// data source = patent US20220370440A1

- measured target: EGFR T790ML858R (Homo sapiens, UniProt P00533, L858R/T790M)
- Sequence (P00533 25-1210 T790M/L858R): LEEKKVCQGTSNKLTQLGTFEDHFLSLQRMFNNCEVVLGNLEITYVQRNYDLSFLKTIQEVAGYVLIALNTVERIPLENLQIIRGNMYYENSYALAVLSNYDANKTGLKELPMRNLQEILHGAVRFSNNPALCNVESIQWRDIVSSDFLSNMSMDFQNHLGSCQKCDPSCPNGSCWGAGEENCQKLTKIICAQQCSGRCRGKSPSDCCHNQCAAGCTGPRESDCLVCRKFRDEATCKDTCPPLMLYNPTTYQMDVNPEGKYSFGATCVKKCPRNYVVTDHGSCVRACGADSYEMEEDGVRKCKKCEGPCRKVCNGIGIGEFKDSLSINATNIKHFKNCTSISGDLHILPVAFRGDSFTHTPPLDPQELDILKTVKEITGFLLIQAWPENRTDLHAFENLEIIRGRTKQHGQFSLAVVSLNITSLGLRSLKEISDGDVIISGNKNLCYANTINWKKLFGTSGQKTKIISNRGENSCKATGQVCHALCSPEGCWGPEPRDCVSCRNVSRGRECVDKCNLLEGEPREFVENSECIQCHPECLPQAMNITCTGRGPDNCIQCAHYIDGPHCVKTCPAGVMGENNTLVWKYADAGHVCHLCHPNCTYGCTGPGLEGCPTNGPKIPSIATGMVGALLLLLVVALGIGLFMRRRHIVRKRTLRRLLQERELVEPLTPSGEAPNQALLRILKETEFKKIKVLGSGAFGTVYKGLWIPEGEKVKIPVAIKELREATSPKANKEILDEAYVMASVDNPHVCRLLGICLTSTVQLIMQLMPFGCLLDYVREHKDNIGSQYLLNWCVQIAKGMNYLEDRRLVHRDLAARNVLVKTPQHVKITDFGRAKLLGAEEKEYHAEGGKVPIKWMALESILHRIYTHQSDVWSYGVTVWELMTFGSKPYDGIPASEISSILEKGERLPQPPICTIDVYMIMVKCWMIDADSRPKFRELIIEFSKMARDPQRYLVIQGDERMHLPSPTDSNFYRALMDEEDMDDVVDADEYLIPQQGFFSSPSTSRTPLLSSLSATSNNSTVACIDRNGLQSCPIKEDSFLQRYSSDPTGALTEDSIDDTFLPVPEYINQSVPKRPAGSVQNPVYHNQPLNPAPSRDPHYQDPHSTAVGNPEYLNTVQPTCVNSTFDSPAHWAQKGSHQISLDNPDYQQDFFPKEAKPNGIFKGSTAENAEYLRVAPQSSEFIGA
- assay protocol: EGFR T790ML858R Lance assay
quantity name: IC50

// query Item: C=CS(=O)(=O)Nc1cc(-c2c(-c3ccc(N4CCN(C)CC4)cc3)[nH]c3nccc(Cl)c23)ccc1C [Example 145, 2,2,2-trifluoroacetate] Test system: EGFR T790ML858R (Homo sapiens, UniProt P00533, L858R/T790M) Read-out: IC50 Value: ?
// result ≤ 100 nM

// query Item: C=CC(=O)N1CCc2ccc(-c3c(-c4ccc(C(=O)N5CCN(C)CC5)cc4)[nH]c4nccc(Cl)c34)cc21 Test system: EGFR T790ML858R (Homo sapiens, UniProt P00533, L858R/T790M) Read-out: IC50 Value: ?
// result ≤ 100 nM

// query Item: C=CC(=O)N1CCOc2ccc(-c3c(-c4ccc(N5CCN(C(C)C)CC5)cc4)[nH]c4nccc(Cl)c34)cc21 Test system: EGFR T790ML858R (Homo sapiens, UniProt P00533, L858R/T790M) Read-out: IC50 Value: ?
// result ≤ 100 nM

* * *

- measured target: Her2 Exon 20 INSYVMA Ba/F3 (Homo sapiens, UniProt P04626, DUP772-775, cells depend on it)
- Sequence (P04626 with tags, fused parts or gaps DUP772-775): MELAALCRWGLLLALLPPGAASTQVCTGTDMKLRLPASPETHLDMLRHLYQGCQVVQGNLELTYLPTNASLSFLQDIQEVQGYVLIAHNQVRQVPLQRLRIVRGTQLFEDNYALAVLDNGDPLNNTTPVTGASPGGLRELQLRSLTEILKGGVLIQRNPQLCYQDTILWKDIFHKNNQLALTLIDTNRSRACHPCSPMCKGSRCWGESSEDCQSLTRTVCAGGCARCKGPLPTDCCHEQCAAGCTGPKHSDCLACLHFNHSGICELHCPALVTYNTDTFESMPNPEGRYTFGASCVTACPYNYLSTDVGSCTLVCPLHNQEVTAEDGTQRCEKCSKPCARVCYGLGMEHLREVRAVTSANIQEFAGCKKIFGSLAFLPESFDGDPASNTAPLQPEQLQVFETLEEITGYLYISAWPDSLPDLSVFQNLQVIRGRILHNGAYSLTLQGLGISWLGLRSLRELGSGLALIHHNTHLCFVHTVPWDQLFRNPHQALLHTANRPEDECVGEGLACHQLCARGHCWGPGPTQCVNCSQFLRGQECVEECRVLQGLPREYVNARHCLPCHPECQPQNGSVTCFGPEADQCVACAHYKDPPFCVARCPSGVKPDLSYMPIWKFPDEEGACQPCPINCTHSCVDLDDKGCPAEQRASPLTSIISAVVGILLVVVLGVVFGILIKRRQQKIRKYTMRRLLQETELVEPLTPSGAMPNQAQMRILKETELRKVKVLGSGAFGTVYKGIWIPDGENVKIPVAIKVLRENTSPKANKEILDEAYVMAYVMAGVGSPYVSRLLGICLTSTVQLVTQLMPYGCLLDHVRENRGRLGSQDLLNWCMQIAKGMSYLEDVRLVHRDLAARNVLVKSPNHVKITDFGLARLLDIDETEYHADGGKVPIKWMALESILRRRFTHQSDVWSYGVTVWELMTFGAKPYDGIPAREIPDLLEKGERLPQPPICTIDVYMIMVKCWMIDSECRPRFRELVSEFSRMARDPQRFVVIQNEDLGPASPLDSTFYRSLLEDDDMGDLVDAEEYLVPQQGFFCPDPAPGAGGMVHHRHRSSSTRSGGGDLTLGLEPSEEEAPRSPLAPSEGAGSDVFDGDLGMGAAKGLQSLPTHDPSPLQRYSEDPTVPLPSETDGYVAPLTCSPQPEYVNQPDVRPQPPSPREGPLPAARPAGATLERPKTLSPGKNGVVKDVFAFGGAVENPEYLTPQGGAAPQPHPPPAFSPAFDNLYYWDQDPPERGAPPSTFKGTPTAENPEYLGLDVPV
- assay protocol: Her2 Exon 20 INSYVMA Ba/F3 CellTiter-Glo
- Assay type: cell-based
- cond: CellTiter-Glo, 72 h, read-out: Her2 Exon 20 INSYVMA Ba/F3 CTG IC50
quantity name: GI50

// query Item: C=CC(=O)Nc1cc(-c2c(-c3ccc(N4CCN(C)CC4)cc3)[nH]c3ncc(C(=O)OCCOC)cc23)ccc1C [Example 140] Test system: Her2 Exon 20 INSYVMA Ba/F3 (Homo sapiens, UniProt P04626, DUP772-775, cells depend on it) Read-out: GI50 Value: ?
// result 100 to 500 nM

// query Item: C=CC(=O)N1CCc2ccc(-c3c(-c4ccc(CN(C)C)cc4)[nH]c4nccc(OCC)c34)cc21 [Example 106] Test system: Her2 Exon 20 INSYVMA Ba/F3 (Homo sapiens, UniProt P04626, DUP772-775, cells depend on it) Read-out: GI50 Value: ?
// result 100 to 500 nM

// query Item: C=CC(=O)Nc1cc(-c2c(-c3ccc(NS(C)(=O)=O)cc3)[nH]c3nccc(Cl)c23)ccc1C [Example 12] Test system: Her2 Exon 20 INSYVMA Ba/F3 (Homo sapiens, UniProt P04626, DUP772-775, cells depend on it) Read-out: GI50 Value: ?
// result 100 to 500 nM

// query Item: C=CC(=O)N1CCc2ccc(-c3c(-c4ccc(N5CCN(C)CC5)nc4)[nH]c4nccc(Cl)c34)cc21 [Example 70] Test system: Her2 Exon 20 INSYVMA Ba/F3 (Homo sapiens, UniProt P04626, DUP772-775, cells depend on it) Read-out: GI50 Value: ?
// result 100 to 500 nM

// query Item: C=CC(=O)Nc1cc(-c2c(-c3ccc(N4CCN(C)CC4)nc3)[nH]c3nccc(Cl)c23)ccc1C [Example 19] Test system: Her2 Exon 20 INSYVMA Ba/F3 (Homo sapiens, UniProt P04626, DUP772-775, cells depend on it) Read-out: GI50 Value: ?
// result 500 to 1000 nM

// query Item: C=CC(=O)N1CCc2ccc(-c3c(-c4ccc(N5CCN(C)CC5)c(F)c4)[nH]c4nccc(Cl)c34)cc21 [Example 57] Test system: Her2 Exon 20 INSYVMA Ba/F3 (Homo sapiens, UniProt P04626, DUP772-775, cells depend on it) Read-out: GI50 Value: ?
// result 100 to 500 nM

// query Item: C=CC(=O)Nc1cc(-c2c(-c3ccc(N4CCN(C)CC4)cc3)[nH]c3ncc(C(=O)NCc4cccc(C(N)=O)c4)cc23)ccc1C [Example 133] Test system: Her2 Exon 20 INSYVMA Ba/F3 (Homo sapiens, UniProt P04626, DUP772-775, cells depend on it) Read-out: GI50 Value: ?
// result > 10000 nM

// query Item: C=CC(=O)Nc1cc(-c2c(-c3ccc(N(C)CCN(C)C)cc3)[nH]c3ncc(C(=O)O)cc23)ccc1C [Example 153, 2,2,2-trifluoroacetate] Test system: Her2 Exon 20 INSYVMA Ba/F3 (Homo sapiens, UniProt P04626, DUP772-775, cells depend on it) Read-out: GI50 Value: ?
// result > 10000 nM

// query Item: C=CC(=O)Nc1cc(-c2c(-c3ccnc(N4CCOCC4)c3)[nH]c3ncc(C(=O)OC(C)C)cc23)ccc1C [Example 166] Test system: Her2 Exon 20 INSYVMA Ba/F3 (Homo sapiens, UniProt P04626, DUP772-775, cells depend on it) Read-out: GI50 Value: ?
// result 1000 to 10000 nM

// query Item: C/C=C/C(=O)Nc1cc(-c2c(-c3ccc(N4CCN(C)CC4)cc3)[nH]c3nccc(Cl)c23)ccc1C [Example 142, 2,2,2-trifluoroacetate] Test system: Her2 Exon 20 INSYVMA Ba/F3 (Homo sapiens, UniProt P04626, DUP772-775, cells depend on it) Read-out: GI50 Value: ?
// result 1000 to 10000 nM

// query Item: C=CC(=O)N1CCOc2ccc(-c3c(-c4cccc(OCCN5CCCC5)c4)[nH]c4nccc(Cl)c34)cc21 [Example 103] Test system: Her2 Exon 20 INSYVMA Ba/F3 (Homo sapiens, UniProt P04626, DUP772-775, cells depend on it) Read-out: GI50 Value: ?
// result 100 to 500 nM

// query Item: C=CC(=O)Nc1cc(-c2c(-c3cnc(N4CCN(C)CC4)nc3)[nH]c3nccc(Cl)c23)ccc1C [Example 39] Test system: Her2 Exon 20 INSYVMA Ba/F3 (Homo sapiens, UniProt P04626, DUP772-775, cells depend on it) Read-out: GI50 Value: ?
// result 500 to 1000 nM

// query Item: C=CC(=O)Nc1cc(-c2c(-c3ccc(N4CCN(C(C)=O)CC4)cc3)[nH]c3nccc(Cl)c23)ccc1C [Example 8] Test system: Her2 Exon 20 INSYVMA Ba/F3 (Homo sapiens, UniProt P04626, DUP772-775, cells depend on it) Read-out: GI50 Value: ?
// result 100 to 500 nM

// query Item: C=CC(=O)N1CCc2ccc(-c3c(-c4ccc(CN5CCOCC5)cc4)[nH]c4nccc(Cl)c34)cc21 [Example 68] Test system: Her2 Exon 20 INSYVMA Ba/F3 (Homo sapiens, UniProt P04626, DUP772-775, cells depend on it) Read-out: GI50 Value: ?
// result 500 to 1000 nM

* * *

For each of the compounds below, state its IC50.

// query Item: C=CC(=O)Nc1cc(-c2c(-c3ccc(Cl)c(C(=O)N4CCOCC4)c3)[nH]c3nccc(Cl)c23)ccc1C Test system: EGFR wt (Homo sapiens) Read-out: IC50 Value: ?
// result 1000 to 100000 nM

// query Item: C=CC(=O)Nc1cc(-c2c(-c3ccc(C4CCN(C)CC4)cc3)[nH]c3nccc(OCC)c23)ccc1C [Example 147, 2,2,2-trifluoroacetate] Test system: EGFR wt (Homo sapiens) Read-out: IC50 Value: ?
// result ≤ 100 nM

// query Item: C=CC(=O)Nc1cc(-c2c(-c3ccc(OCCN4CCCC4)cc3)[nH]c3ncc(C(=O)OC(C)C)cc23)ccc1C Test system: EGFR wt (Homo sapiens) Read-out: IC50 Value: ?
// result ≤ 100 nM

// query Item: C=CC(=O)Nc1cc(-c2c(-c3ccc(N4CCN(CC)CC4)cc3)[nH]c3nccc(Cl)c23)ccc1C Test system: EGFR wt (Homo sapiens) Read-out: IC50 Value: ?
// result ≤ 100 nM

* * *

- measured target: HER2 INS YVMA (Homo sapiens, UniProt P04626, INS775YVMA)
- Construct: purchased DPF
- assay protocol: Lance Kinase Activity Assay, HER2 INS YVMA (Her2 Exon 20 INSYVMA Lance)
- Format: biochemical
- cond: biochemical Lance assay
For each of the molecules below, state its IC50.

// query Name the reported IC50 value associated with the molecule C=CC(=O)Nc1cc(-c2c(-c3cccc(OCCN4CCCC4)c3)[nH]c3nccc(Cl)c23)ccc1C [Example 37]
// result ≤ 100 nM

// query Name the reported IC50 value associated with the molecule C=CC(=O)N1CCCc2ccc(-c3c(-c4ccc(N5CCN(C(C)C)CC5)cc4)[nH]c4nccc(Cl)c34)cc21 [Example 91]
// result ≤ 100 nM

// query Name the reported IC50 value associated with the molecule C=CC(=O)Nc1cc(-c2c(-c3ccc(N4CCOCC4)nc3)[nH]c3nccc(Cl)c23)ccc1C [Example 30]
// result 100 to 500 nM

// query Name the reported IC50 value associated with the molecule C=CC(=O)Nc1cc(-c2c(-c3ccc(N4CCN(C)CC4)cc3)[nH]c3ncc(C(=O)NCCc4ccncc4)cc23)ccc1C [Example 123]
// result 500 to 1000 nM

// query Name the reported IC50 value associated with the molecule C=CC(=O)Nc1cc(-c2c(-c3ccc(N4CCN(C)CC4)cc3)[nH]c3ncc(C(=O)NCc4cccc(NC(C)=O)c4)cc23)ccc1C [Example 121]
// result ≤ 100 nM

// query Name the reported IC50 value associated with the molecule C=CC(=O)Nc1cc(-c2c(-c3ccc(C(=O)N4CCOCC4)cc3)[nH]c3nccc(Cl)c23)ccc1C [Example 11]
// result ≤ 100 nM

// query Name the reported IC50 value associated with the molecule C=CC(=O)Nc1cc(-c2c(-c3ccnc(N4CCOCC4)c3)[nH]c3nccc(Cl)c23)ccc1C [Example 32]
// result 100 to 500 nM

// query Name the reported IC50 value associated with the molecule C=CC(=O)Nc1cc(-c2c(-c3ccc(N4CCN(C(C)=O)CC4)nc3)[nH]c3nccc(Cl)c23)ccc1C [Example 31]
// result 100 to 500 nM

// query Name the reported IC50 value associated with the molecule C=CC(=O)Nc1cc(-c2c(-c3ccc(N4CCN(S(=O)(=O)CC)CC4)cc3)[nH]c3nccc(Cl)c23)ccc1C [Example 15]
// result 100 to 500 nM

// query Name the reported IC50 value associated with the molecule C=CC(=O)N1CCOc2ccc(-c3c(-c4ccc(N5CCN(C(C)C)CC5)cc4)[nH]c4nccc(Cl)c34)cc21 [Example 85]
// result ≤ 100 nM

// query Name the reported IC50 value associated with the molecule C=CC(=O)Nc1cc(-c2c(-c3ccc(N(C)CCN(C)C)cc3)[nH]c3ncc(C(=O)O)cc23)ccc1C [Example 153, 2,2,2-trifluoroacetate]
// result ≤ 100 nM

// query Name the reported IC50 value associated with the molecule C=CC(=O)Nc1cc(-c2c(-c3cccc(C(=O)N4CCN(C(C)=O)CC4)c3)[nH]c3nccc(Cl)c23)ccc1C [Example 52]
// result 100 to 500 nM

// query Name the reported IC50 value associated with the molecule C=CC(=O)N1CCc2ccc(-c3c(-c4ccc(CN5CCOCC5)cc4)[nH]c4nccc(Cl)c34)cc21 [Example 68]
// result ≤ 100 nM

// query Name the reported IC50 value associated with the molecule Cc1ccc(-c2c(-c3ccc(N4CCN(C)CC4)cc3)[nH]c3nccc(Cl)c23)cc1NC(=O)/C=C/CN(C)C [Example 143, 2,2,2-trifluoroacetate]
// result ≤ 100 nM

// query Name the reported IC50 value associated with the molecule C=CC(=O)Nc1cc(-c2c(-c3ccc(OCCN(C)C)cc3)[nH]c3ncc(C(=O)OC(C)C)cc23)ccc1C [Example 159]
// result ≤ 100 nM

// query Name the reported IC50 value associated with the molecule C=CC(=O)Nc1cc(-c2c(-c3ccnc(N4CCOCC4)c3)[nH]c3ncccc23)ccc1C [Example 80]
// result 500 to 1000 nM

// query Name the reported IC50 value associated with the molecule C=CC(=O)Nc1cc(-c2c(-c3ccc(NS(C)(=O)=O)cc3)[nH]c3nccc(Cl)c23)ccc1C [Example 12]
// result 100 to 500 nM

// query Name the reported IC50 value associated with the molecule C=CC(=O)Nc1cc(-c2c(-c3ccc(N4CCN(C)CC4)cc3)[nH]c3ncc(C(=O)NCc4ccc(F)cc4F)cc23)ccc1C [Example 131]
// result 100 to 500 nM

// query Name the reported IC50 value associated with the molecule C=CC(=O)Nc1cc(-c2c(-c3cccc(C(=O)NCCCN4CCCC4)c3)[nH]c3nccc(Cl)c23)ccc1C [Example 47]
// result ≤ 100 nM

// query Name the reported IC50 value associated with the molecule C=CC(=O)Nc1cc(-c2c(-c3ccc(N4CCN(C)CC4)cc3)[nH]c3ncc(C(=O)NCc4cccc(C(N)=O)c4)cc23)ccc1C [Example 133]
// result 100 to 500 nM

// query Name the reported IC50 value associated with the molecule C=CC(=O)Nc1cc(-c2c(-c3ccc(N4CCN(C)CC4)cc3)[nH]c3ncc(OCC)cc23)ccc1C [Example 193, 2,2,2-trifluoroacetate]
// result ≤ 100 nM

// query Name the reported IC50 value associated with the molecule C=CC(=O)Nc1cc(-c2c(-c3ccc(N4CCN(C)CC4)cc3)[nH]c3ncc(C(=O)OCC)cc23)ccc1C [Example 135]
// result ≤ 100 nM

// query Name the reported IC50 value associated with the molecule C=CC(=O)N1CCc2ccc(-c3c(-c4ccc(OCCN5CCCC5)cc4)[nH]c4nccc(OC)c34)cc21 [Example 112]
// result ≤ 100 nM

// query Name the reported IC50 value associated with the molecule C=CC(=O)N1CCCc2ccc(-c3c(-c4ccc(OCCN(C)C)cc4)[nH]c4nccc(Cl)c34)cc21 [Example 92]
// result ≤ 100 nM

// query Name the reported IC50 value associated with the molecule C=CC(=O)N1CCCc2ccc(-c3c(-c4cccc(OCCN(C)C)c4)[nH]c4nccc(Cl)c34)cc21 [Example 88]
// result ≤ 100 nM

// query Name the reported IC50 value associated with the molecule C=CC(=O)Nc1cc(-c2c(-c3ccc(N4CCN(C)CC4)cc3)[nH]c3ncc(C(=O)OC(C)C)c(C)c23)ccc1C [Example 198]
// result ≤ 100 nM

// query Name the reported IC50 value associated with the molecule C=CC(=O)Nc1cc(-c2c(-c3ccc(N4CCN(C)CC4)cc3)[nH]c3ncc(CC(=O)OC(C)C)cc23)ccc1C [Example 190, 2,2,2-trifluoroacetate]
// result ≤ 100 nM
